Recorded values, source PubChem BioAssay.

Assay: S. cerevisiae RM11-1a growth modifiers, primary screen, strain RM11-1a, OD600, basal, 24 h (AID 1177);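 also: cultures grown under basal conditions with no added stressor; test concentration not given here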
Conditions: OD600, 24 h, higher = more signal, called active from +8 up or from −8 down
Activity calls are given as the source filed them.
Listed here: items and their measured z-score.

A selection of reference data follows.
[
  {
    "SMILES STR": "CCCNC(=O)OC[C@H]1O[C@H](CCON=C(C)CCN2CCc3nc(-c4ccccc4)c(-c4ccccc4)cc3C2)C=C[C@@H]1Oc1ccc(OC)cc1",
    "z-score": "1.13 (inactive)"
  },
  {
    "SMILES STR": "C[C@@H]1CC[C@@H](C(=O)O)N[C@H]1c1ccc(-c2ccco2)cc1",
    "z-score": "-0.0212 (inactive)"
  }
]

// moving on: another record for z-score
Q) Give its z-score value. Item: "CO[C@H]1COC(=O)CC=C[C@@H](C)COC(=O)[C@@H](OCc2ccccc2)C=C[C@@H]1C"
A) -0.78 (inactive)

* * *

Test: PSAC antagonists in infected red cells, primary screen, cell-based, P. falciparum Indochina, OD700, 1 h (AID 1154)
Settings: P. falciparum Indochina infected RBC osmotic lysis, higher = more signal, called active from +8 up or from −8 down
REPORTED METRIC: z-score
// response body must contain only the number

Q) Give its z-score value. Item: "CO[C@H]1COC(=O)[C@H](C)NC(=O)CC=C[C@@H](C)[C@H](OC)COC(=O)CC=C[C@@H]1C"
A) -0.0029

Q) Give its z-score value. Item: "CC(C)CCN1CCc2nc(-c3ccccc3)c3c(c2C1)CO[C@@H](C)C3"
A) 0.253

Q) Give its z-score value. Item: "CCCNC(=O)OC[C@H]1O[C@H](CCON=C(C)CCN2CCc3nc(-c4ccccc4)c(-c4ccccc4)cc3C2)C=C[C@@H]1Oc1ccc(OC)cc1"
A) 1.77

Q) Give its z-score value. Item: "C[C@@H](c1ccccc1)N1C(=O)[C@H]2[C@H]3[C@H](O)[C@H](O)CC(=O)[C@@H]3CC[C@H]2C1=O"
A) 0.207

Q) Give its z-score value. Item: "CO[C@@H]1COC(=O)CC=C[C@H](C)COC(=O)[C@H](C)NC(=O)CC=C[C@H]1C"
A) -0.0875

Q) Give its z-score value. Item: "CO[C@@H]1C=CCC(=O)N2CCC[C@H]2C(=O)OC[C@H](C)C(=O)OC[C@H]1C"
A) -0.393

Q) Give its z-score value. Item: "COc1ccc(COC(=O)NN=C2C[C@@H](O)[C@@H](O)[C@@H]3[C@@H]4C(=O)N(C(C)(C)C)C(=O)[C@@H]4CC[C@H]23)cc1"
A) 1.91

Q) Give its z-score value. Item: CCOC(=O)[C@H](CC(C)C)NC(=O)CCC1CC(OC(=O)NCc2cccc3ccccc23)CC2(CCCC(COC(=O)NCc3ccccc3)O2)O1 (stereo partly specified)
A) 0.56

* * *

Assay: binders of probe aFGF2 on microarray, primary screen, stem cell growth factor project, biochemical, small-molecule microarray, fluorescence 635/667 (AID 1067);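 also: measures binding of biotinylated aFGF2 protein to printed compounds on slides; z-score merges feature fluorescence and signal-to-noise across triplicate slides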
Conditions: higher = more signal
Listed here: items and their measured composite z-score.
// response body must contain only the number

A selection of reference data follows.
[
  {
    "COMPOUND": "Cc1cc2c(nc1C)CCCN2CC(C)ON=C[C@@H](C)[C@H](OCc1ccccc1)C(C)C (some centres undefined)",
    "composite z-score": -0.0724
  },
  {
    "COMPOUND": "O=C1[C@H]2[C@H]3[C@H](O)[C@H](O)CC(=NOCc4ccccc4)[C@H]3CC[C@H]2C(=O)N1Cc1ccccc1",
    "composite z-score": -0.109
  },
  {
    "COMPOUND": "Cc1ccc(S(=O)(=O)N[C@H]2COC(=O)[C@@H](C)COC(=O)[C@H](C)NC(=O)CC=C[C@H]2C)cc1",
    "composite z-score": -0.116
  },
  {
    "COMPOUND": "CCOC(=O)CCN1C(=O)[C@H]2[C@H]3[C@H](O)[C@H](O)CC(=NNC(=O)OCC)[C@@H]3CC[C@H]2C1=O",
    "composite z-score": -0.0459
  },
  {
    "COMPOUND": "CCOC(=O)[C@H](CC(C)C)NC(=O)CCC1CC(OC(=O)NCc2cccc3ccccc23)CC2(CCCC(COC(=O)NCc3ccccc3)O2)O1 (some centres undefined)",
    "composite z-score": -0.116
  }
]

Q) Give its composite z-score value. Item: "COc1ccc(COC(=O)NN=C2C[C@@H](O)[C@@H](O)[C@@H]3[C@@H]4C(=O)N(C(C)(C)C)C(=O)[C@@H]4CC[C@H]23)cc1"
A) -0.0439

Q) Give its composite z-score value. Item: "CC(C)=NO[C@@H](C)c1cc(-c2c(C)cc(C)cc2C)no1"
A) -0.135

Q) Give its composite z-score value. Item: "CO[C@@H]1COC(=O)CC=C[C@H](C)COC(=O)[C@H](C)NC(=O)CC=C[C@H]1C"
A) -0.203

Q) Give its composite z-score value. Item: "C=CC[C@H](O)c1ccc(OCCO)cc1"
A) -0.153
